System: SNB-19
Experiment: NCI tumour cell line growth inhibition, 48 h
Calls of active or inactive are those of the source. Rule as the data show it: active = GI50 up to about 1.1 µM and inactive = higher.
# Lookup of reported GI50 keyed by entry

CCOC(=O)C(Cc1ccccc1)NC(=O)OC(C)(C)C (stereo not given) | > 100 µM (inactive)
COc1ccc(OC2OC(COC(c3ccccc3)(c3ccc(OC)cc3)c3ccc(OC)cc3)C(O)C(O)C2O)cc1 (stereo not given) | 9.66 µM (inactive)
Cc1ccc(NC(=O)c2cc3ccccc3c(/N=N\c3ccccc3O)c2O)c(C)c1 | 1.2 µM (inactive)
COc1cc(/C=C/C(=O)C(C)(C)C)cc(OC)c1OC | > 100 µM (inactive)
COc1ccc(OC)c(C#Cc2ccc(OC)c(C(=O)NCCc3ccc(F)cc3)c2)c1 | 61.2 µM (inactive)

Okay, now this molecule:
Data point: CCC(C)NC(=S)N/N=C(\C)c1ccccn1 (stereo not given) ; GI50 = 1.45 µM (inactive)

###

Tested on: UO-31
Assay: NCI tumour cell line growth inhibition, 48 h
Active and inactive are the calls of the source. Rule as the data show it: active = GI50 up to about 1.1 µM and inactive = higher.
# Lookup of reported GI50 keyed by entry

Worked examples, 3 compounds total:
CC[C@H]1C=CCC[C@@]2(C[C@@H]3CC[C@H]4[C@@H](C(=O)OCCCCCCCCCCCCCCCC(=O)N(CCCN)C[C@@H](O)CCN)[C@@]5(CCC[C@@H](C)O5)NC(=[N+]34)N2)O1 | 9.18 µM (inactive)
Cc1cc(Cl)ccc1NC(=O)C(=O)Cc1ccc([N+](=O)[O-])c([N+](=O)[O-])c1CC(=O)C(=O)Nc1ccc(Cl)cc1C | > 100 µM (inactive)
OCCN=C1c2ccccc2C2C(c3ccccc31)C1c3ccccc3C(=NCCO)c3ccccc3C21 (centres undefined) | 12.5 µM (inactive)

Data point: "Nc1cccc(Nc2nc3ccccc3nc2NS(=O)(=O)c2ccccc2)c1" ; GI50 = 16 µM (inactive)

Data point: "COC(CN1C=C(Sc2ccccc2)CC1)OC" ; GI50 = 29.9 µM (inactive)

Data point: COC1=CC23CCCN2CCc2cc4c(cc2C3C1O)OCO4 (centres undefined) ; GI50 = 48 µM (inactive)

###

Test system: CAKI-1
Test: NCI tumour cell line growth inhibition, 48 h
Activity calls are given as the source filed them. Rule as the data show it: active = GI50 up to about 1.1 µM and inactive = higher.
Permitted responses: T for active, F for inactive

Prompt: # lookup: test call for COc1ccc2c(c1)C(O)(C(F)(F)F)c1cc(C(=O)C(F)(F)F)c3ccccc3c1N2 (configuration not stated)
Completion: F

Prompt: # lookup: test call for "Cc1[nH]c2ccccc2c1C1=CC(=O)N(c2ccccc2)C1=O"
Completion: F

Prompt: # lookup: test call for "CCN(CC)CCNC(=O)c1ccc(C)c(OCc2ccccc2)c1[N+](=O)[O-]"
Completion: F

Prompt: # lookup: test call for "Cc1ccc(NC(=O)CC(=O)n2nc(-c3ccccc3)c(/N=N/c3ccccc3Cl)c2-c2ccccc2)cc1"
Completion: F

Prompt: # lookup: test call for "COc1ccc(N2C(=O)C(=O)N(c3ccc(/N=N\c4ccccc4)cc3)C2=S)cc1"
Completion: F

Prompt: # lookup: test call for "NCCc1c[nH]c2ccc(OC(=O)C(=O)O)cc12"
Completion: F

Prompt: # lookup: test call for "Clc1cc(-c2ccccc2)nc2ccccc12"
Completion: F

Prompt: # lookup: test call for CCOC(=O)C(Cc1ccccc1)NC(=O)c1ccc(/N=N/N(C)C)cc1 (configuration not stated)
Completion: F

###

# Lookup of reported GI50 keyed by entry
Tested on: K562
Test: NCI tumour cell line growth inhibition, 48 h
Calls of active or inactive are those of the source. No stated cut-off is given here; in the data, active = GI50 up to about 1.1 µM and inactive = higher.

COC(=O)c1ccc(/N=N/N(C)COc2ccc([N+](=O)[O-])cc2)cc1 | 50.7 µM (inactive)

Known value: K562 GI50 of the compound N=C(N)C(/N=N\c1ccccc1)C(=N)N (centres undefined) equals 23.7 µM (inactive)

Known value: K562 GI50 of the compound "COC(=O)/C=C(\C(=O)OC)c1c2c3c(cc(OC)c(OC)c3c3ccccc13)CCN2C" equals 26.2 µM (inactive)

Known value: K562 GI50 of the compound "CCOC(=O)CC(=O)CSc1c(-c2ccccc2)c(=O)n(-c2ccccc2)c(=S)n1-c1ccccc1" equals > 100 µM (inactive)

Known value: K562 GI50 of the compound "O=c1[nH]nc(-c2ccc([N+](=O)[O-])cc2)[nH]1" equals > 100 µM (inactive)

Known value: K562 GI50 of the compound "COc1ccc(C(=O)N/N=C2\C(=O)c3c(C)cc(C)cc3CC2(C)C)cc1" equals 16.7 µM (inactive)

Known value: K562 GI50 of the compound CC1(C)CCC2(C(=O)OC3OC(CO)C(O)C(O)C3O)CCC3(C)C(=CCC4C5(C)CCC(OC6OC(CO)C(O)C(O)C6O)C(C)(C)C5CCC43C)C2C1 (centres undefined) equals 9.04 µM (inactive)

Known value: K562 GI50 of the compound "CCOC(=O)c1ccc(N(CCOS(=O)(=O)c2ccc(C)cc2)CCOS(=O)(=O)c2ccc(C)cc2)cc1" equals > 100 µM (inactive)

Known value: K562 GI50 of the compound "Cc1ccccc1NC(=O)C(=O)Cc1cnc2ccccc2n1" equals > 100 µM (inactive)

###

System: HCT-116
Test: NCI tumour cell line growth inhibition, 48 h
Calls of active or inactive are those of the source. No stated cut-off is given here; in the data, active = GI50 up to about 1.1 µM and inactive = higher.
# Lookup of reported GI50 keyed by entry

Worked examples, 3 compounds total:
CC(CO)(CO)N1C(=O)C2C3c4ccccc4C(c4ccccc43)C2C1=O (centres undefined) | > 100 µM (inactive)
CN(C)c1ccc(/C(Br)=C2\OC(=O)c3ccccc32)cc1 | > 100 µM (inactive)
Nc1nnc(-c2ccco2)c(-c2ccco2)n1 | > 100 µM (inactive)

Data point: "O=C1N(CN2CCOCC2)CN(CN2CCOCC2)C(=O)N1Cc1ccc(-c2ccc(CN3C(=O)N(CN4CCOCC4)CN(CN4CCOCC4)C3=O)cc2)cc1" ; GI50 = 7.6 µM (inactive)

Data point: "Cn1c(=O)c2nc(CCCCc3nc4c(=O)n(C)c(=S)n(C)c4[nH]3)[nH]c2n(C)c1=S" ; GI50 = > 100 µM (inactive)

Data point: c1ccc(SC2CCSc3ccccc3C2Sc2ccccc2)cc1 (centres undefined) ; GI50 = 9.75 µM (inactive)

Data point: "O=[N+]([O-])c1ccc(N2CCC(CCCC3CCN(c4ccc([N+](=O)[O-])cc4[N+](=O)[O-])CC3)CC2)c([N+](=O)[O-])c1" ; GI50 = 26.5 µM (inactive)

Data point: "N#Cc1nc(-c2ccsc2)oc1N" ; GI50 = > 100 µM (inactive)

Data point: "O=[N+]([O-])c1ccc(N/N=C/c2ccc(OCCCCCCCCCCCO)cc2)c([N+](=O)[O-])c1" ; GI50 = 17.4 µM (inactive)

###

Test system: EKVX
Assay: NCI tumour cell line growth inhibition, 48 h
Calls of active or inactive are those of the source. No stated cut-off is given here; in the data, active = GI50 up to about 1.1 µM and inactive = higher.
# Lookup of reported GI50 keyed by entry

Worked examples, 5 molecules total:
O=C(OCC(OC(=O)c1ccccc1)C1CC(C(O)C2CCCCC2)C(=O)O1)c1ccccc1 (stereo not given) | > 100 µM (inactive)
O=C(NCCNCCNC(=O)C(F)(F)F)C(F)(F)F | > 100 µM (inactive)
CCOc1ccc(NC(=O)/C(=N\N)C(C(=O)OC)c2nc3ccc(Cl)cc3nc2O)cc1 (stereo not given) | 33 µM (inactive)
NCCCCNCCCN1CCOC1=O | > 100 µM (inactive)
CC(=O)OCC1OC(OCCCCCCO)C(OC(C)=O)C(OC(C)=O)C1OC(C)=O (stereo not given) | > 100 µM (inactive)

Data point: CN/N=C(\C)C(CN(C)C)C(c1ccccc1)c1c(O)c2ccccc2oc1=O (stereo not given) ; GI50 = > 100 µM (inactive)

Data point: "Cc1ccccc1NC(=O)C(=O)Cc1cnc2ccccc2n1" ; GI50 = > 100 µM (inactive)

Data point: "CN(C)c1ccc(/C=N/NC(=O)c2cnc3ccccc3c2)cc1" ; GI50 = 58.6 µM (inactive)

Data point: "CN(C)c1ccc(/C=c2\sc3nnc(-c4ccco4)n3c2=O)cc1" ; GI50 = > 100 µM (inactive)

Data point: CC(CCCC1SCC2NC(=O)NC21)C(=O)O (stereo not given) ; GI50 = > 100 µM (inactive)

###

Tested on: EKVX
Experiment: NCI tumour cell line growth inhibition, 48 h
Activity calls are given as the source filed them. Rule as the data show it: active = GI50 up to about 1.1 µM and inactive = higher. Where a SMILES comes first, the peptide text is derived from it. [ ]: non-standard residue; d: D form. pGlu = O=C1CC[CH](C(=O)O)N1
# Lookup of reported GI50 keyed by entry

Worked examples, 5 compounds total:
Cn1c2c(c3ccccc31)CCN(CCN1CCN(c3ccccc3)CC1)C2=O | > 100 µM (inactive)
Cn1cc(NC(=O)c2cc(NC(=O)Nc3cc(C(=O)Nc4cc(C(=O)NCCC(=N)N)n(C)c4)n(C)c3)cn2C)cc1C(=O)NCCC(=N)N | 52.2 µM (inactive)
CC1OC(OC2C(O)COC(OC3C(C)OC(OC4C(OC(=O)[C@]56CCC(C)(C)C[C@@H]5C5=CCC7[C@@]8(C)C[C@H](O)[C@H](OC9OC(CO)C(O)C(OC%10OC(CO)C(O)C(O)C%10O)C9O)[C@@](C)(CO)[C@@H]8CC[C@@]7(C)[C@]5(C)CC6)OCC(O)C4O)C(O)C3OC3OCC(O)(CO)C3O)C2O)C(O)C(O)C1O (some centres not stated) | 5.83 µM (inactive)
CC(NC(=O)C1CCC(=O)N1)C(=O)N1CCCC1C(N)=O (stereo not drawn) ([pGlu]-Ala-Pro-NH2; configuration not given here) | > 100 µM (inactive)
O=C1NC(=O)C(C(=O)C(=O)Nc2ccc(Br)cc2)C(=O)N1 | > 100 µM (inactive)

Known value: EKVX GI50 of the compound "N#Cc1c2c(c(N3CCOCC3)n3c1nc1ccccc13)CCCC2" equals 16.2 µM (inactive)

Known value: EKVX GI50 of the compound "CC(C)=NNC(=S)NC12CC3CC(CC(C3)C1)C2" equals > 100 µM (inactive)
